Where do these numbers come from? They come from patent US9290551B2.

Measured IC50, listed per entry.
- System: HPV18
- assay.procedure: HPV18 DNA levels in keratinocytes by real-time PCR
- Type: cell-based, Human papilloma virus
- applied.conditions: effective (pseudo) IC50

>>> endpoint_value("CN(CCCN)CCCNC(=O)CCNC(=O)c1cc(NC(=O)c2cc(NC(=O)c3cc(NC(=O)c4cc(NC(=O)CCNC(=O)c5cc(NC(=O)c6cc(NC(=O)[C@H](N)CCNC(=O)c7cc(NC(=O)c8cc(NC(=O)c9cc(NC(=O)CCNC(=O)c%10cc(NC(=O)c%11cc(NC(=O)c%12nccn%12C)cn%11C)cn%10C)cn9C)cn8C)cn7C)cn6C)cn5C)cn4C)cn3C)cn2C)cn1C [Polyamide 1030, ImPPβPPPγNH2PPβPPPPβTa]")
"100 to 1000 nM"

Ask | Request the reported IC50 associated with CN(CCCN)CCCNC(=O)CCNC(=O)c1cc(NC(=O)c2cc(NC(=O)c3cc(NC(=O)CCNC(=O)c4cc(NC(=O)c5cc(NC(=O)c6cc(NC(=O)CCNC(=O)c7cc(NC(=O)CCNC(=O)CCCNC(=O)c8nc(NC(=O)c9cc(NC(=O)c%10cc(NC(=O)CCNC(=O)c%11cc(NC(=O)c%12nc(NC(=O)c%13cc(NC(=O)CCNC(=O)c%14cc(NC(=O)c%15cc(NC(=O)c%16nccn%16C)cn%15C)cn%14C)cn%13C)cn%12C)cn%11C)cn%10C)cn9C)cn8C)cn7C)cn6C)cn5C)cn4C)cn3C)cn2C)cn1C [Polyamide 1045, ImPPβPIPβPPIγβPβPPPβPPPβTa]
Reply | 100 to 1000 nM

###

- Tested on: HPV18
- assay.procedure: HPV18 DNA levels in keratinocytes by real-time PCR
- Type: cell-based, Human papilloma virus
- applied.conditions: effective (pseudo) IC50
result.type: IC50

>>> endpoint_value("CN(C)CCCNC(=O)CCNC(=O)c1cc(NC(=O)c2cc(NC(=O)c3cc(NC(=O)CCNC(=O)c4cc(NC(=O)c5cc(NC(=O)c6cc(NC(=O)CCNC(=O)c7cc(NC(=O)c8cc(NC(=O)[C@@H](CCN)NC(=O)c9cc(NC(=O)c%10cc(NC(=O)CCNC(=O)c%11nc(NC(=O)c%12cc(NC(=O)c%13cc(NC(=O)CCNC(=O)c%14cc(NC(=O)c%15cc(NC(=O)c%16nccn%16C)cn%15C)cn%14C)cn%13C)cn%12C)cn%11C)cn%10C)cn9C)cn8C)cn7C)cn6C)cn5C)cn4C)cn3C)cn2C)cn1C [Polyamide 1050, ImPPβPPIβPPγNH2PPβPPPβPPPβDp]")
"≥ 1000 nM"
>>> endpoint_value("CN(C)CCCNC(=O)CCNC(=O)c1cc(NC(=O)c2cc(NC(=O)c3cc(NC(=O)CCNC(=O)c4cc(NC(=O)c5cc(NC(=O)c6cc(NC(=O)CCNC(=O)c7cc(NC(=O)c8cc(NC(=O)[C@H](N)CCNC(=O)c9cc(NC(=O)c%10cc(NC(=O)CCNC(=O)c%11nc(NC(=O)c%12cc(NC(=O)c%13cc(NC(=O)CCNC(=O)c%14cc(NC(=O)c%15cc(NC(=O)c%16nccn%16C)cn%15C)cn%14C)cn%13C)cn%12C)cn%11C)cn%10C)cn9C)cn8C)cn7C)cn6C)cn5C)cn4C)cn3C)cn2C)cn1C [Polyamide 1066, ImPPβPPIβPPγNH2PPβPPPβPPPβDp]")
"100 to 1000 nM"
>>> endpoint_value("CN(CCCN)CCCNC(=O)CCNC(=O)c1cc(NC(=O)CCNC(=O)c2cc(NC(=O)c3cc(NC(=O)c4cc(NC(=O)CCNC(=O)c5cc(NC(=O)c6cc(NC(=O)CCCNC(=O)CCNC(=O)c7cc(NC(=O)c8cc(NC(=O)CCNC(=O)c9cc(NC(=O)c%10cc(NC(=O)c%11cc(NC(=O)c%12nccn%12C)cn%11C)cn%10C)cn9C)cn8C)cn7C)cn6C)cn5C)cn4C)cn3C)cn2C)cn1C [Polyamide 1027, ImPPPβPPβγPPβPPPβPβTa]")
"100 to 1000 nM"

Continue with the next compound.
Ask | What does the data say about its IC50? Entry: CN(CCCN)CCCNC(=O)CCNC(=O)c1cc(NC(=O)c2cc(NC(=O)c3cc(NC(=O)CCNC(=O)c4cc(NC(=O)c5cc(NC(=O)c6cc(NC(=O)CCNC(=O)c7cc(NC(=O)c8cc(NC(=O)[C@H](N)CCNC(=O)c9cc(NC(=O)c%10cc(NC(=O)CCNC(=O)c%11nc(NC(=O)c%12cc(NC(=O)c%13cc(NC(=O)CCNC(=O)c%14cc(NC(=O)c%15cc(NC(=O)c%16nccn%16C)cn%15C)cn%14C)cn%13C)cn%12C)cn%11C)cn%10C)cn9C)cn8C)cn7C)cn6C)cn5C)cn4C)cn3C)cn2C)cn1C [Polyamide 1067, ImPPβPPIβPPγNH2PPβPPPβPPPβTa]
Reply | 100 to 1000 nM
